// data source = a melting point compilation (Tetko et al.; mined from patent text by program, amines drawn as free bases though some values may be those of a salt)

Measured Metric: melting point

Please review the following examples before continuing.
CCCCCCCCCCCCNC(=O)C(CC(=O)O)Sc1nc2ccccc2s1 (stereo unspecified) | 117 to 121 °C
CCOC(=O)N1CCN(c2nc(=O)c3cccnc3s2)CC1 | 139 to 140 °C
Cc1cc(=O)c2ccc(OCCCN3CCC(NC(=O)Cc4ccccc4)CC3)cc2o1 | 172 to 173 °C
O=C1CCC(c2ccc(CCCCCNC(=O)c3cccnc3)cc2)=NN1 | 133 to 134 °C
CC(C)(C)OC(=O)NC(Cc1cnc2ccccc2c1)C(=O)O (stereo unspecified) | 159 to 160 °C
CC(C)COc1ccccc1-c1ncc(-c2nnn[nH]2)c(=O)[nH]1 | 230 to 231 °C
COc1ccc(C2CC(n3cncn3)c3ccccc3N2)cc1 (stereo unspecified) | 170 to 172 °C
COC(=O)c1ccc(C(OC(C)=O)OC(C)=O)cc1 | 64 to 67 °C

Problem: In one line, give reported melting point of the entry `COc1ccc(Cn2c(=O)c3ccc(Cl)cc3n(CCCCBr)c2=O)cc1` .
Solution: 107 to 109 °C
